The origin of these recorded values is the supplement of paper PMC4466140.

Reported SPOT peptide array binding signal intensity values are given for each entry in this list.
target: ScSla1-D1-D2; assay: SPOT peptide array binding signal intensity (averaged, normalized) (arbitrary units (background-subtracted, floor 0; scale differs between SH3 domains)); higher = stronger binding of the SH3 domain to the peptide

Below: 2 binders and their reported SPOT peptide array binding signal intensity.
>>> result("PPIPNAPLSPAPAVP")
"≤ 0"
>>> result("QDKEGIPPDQQRLIF")
"≤ 0"

Let's switch to this binder now.
# query: SPOT peptide array binding signal intensity of entry `WRPRIVPILPYITRL`
≤ 0
